target: hCereblon(M1-L442)_hDDB1(M1-H1140) (Homo sapiens (Human))
Sequence (Q96SW2 whole entry): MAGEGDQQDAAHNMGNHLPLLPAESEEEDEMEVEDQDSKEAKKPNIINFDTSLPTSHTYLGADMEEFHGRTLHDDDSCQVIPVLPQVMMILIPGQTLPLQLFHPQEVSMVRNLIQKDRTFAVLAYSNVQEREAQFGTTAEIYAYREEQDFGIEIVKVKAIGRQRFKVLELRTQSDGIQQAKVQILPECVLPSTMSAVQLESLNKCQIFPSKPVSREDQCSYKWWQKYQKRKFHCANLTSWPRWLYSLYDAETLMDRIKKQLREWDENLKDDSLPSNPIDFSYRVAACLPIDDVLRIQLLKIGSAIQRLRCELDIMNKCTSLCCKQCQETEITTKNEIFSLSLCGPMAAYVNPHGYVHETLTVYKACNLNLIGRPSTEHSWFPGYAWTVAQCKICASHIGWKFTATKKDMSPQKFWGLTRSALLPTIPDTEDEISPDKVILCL
Sequence (Q16531 whole entry partner): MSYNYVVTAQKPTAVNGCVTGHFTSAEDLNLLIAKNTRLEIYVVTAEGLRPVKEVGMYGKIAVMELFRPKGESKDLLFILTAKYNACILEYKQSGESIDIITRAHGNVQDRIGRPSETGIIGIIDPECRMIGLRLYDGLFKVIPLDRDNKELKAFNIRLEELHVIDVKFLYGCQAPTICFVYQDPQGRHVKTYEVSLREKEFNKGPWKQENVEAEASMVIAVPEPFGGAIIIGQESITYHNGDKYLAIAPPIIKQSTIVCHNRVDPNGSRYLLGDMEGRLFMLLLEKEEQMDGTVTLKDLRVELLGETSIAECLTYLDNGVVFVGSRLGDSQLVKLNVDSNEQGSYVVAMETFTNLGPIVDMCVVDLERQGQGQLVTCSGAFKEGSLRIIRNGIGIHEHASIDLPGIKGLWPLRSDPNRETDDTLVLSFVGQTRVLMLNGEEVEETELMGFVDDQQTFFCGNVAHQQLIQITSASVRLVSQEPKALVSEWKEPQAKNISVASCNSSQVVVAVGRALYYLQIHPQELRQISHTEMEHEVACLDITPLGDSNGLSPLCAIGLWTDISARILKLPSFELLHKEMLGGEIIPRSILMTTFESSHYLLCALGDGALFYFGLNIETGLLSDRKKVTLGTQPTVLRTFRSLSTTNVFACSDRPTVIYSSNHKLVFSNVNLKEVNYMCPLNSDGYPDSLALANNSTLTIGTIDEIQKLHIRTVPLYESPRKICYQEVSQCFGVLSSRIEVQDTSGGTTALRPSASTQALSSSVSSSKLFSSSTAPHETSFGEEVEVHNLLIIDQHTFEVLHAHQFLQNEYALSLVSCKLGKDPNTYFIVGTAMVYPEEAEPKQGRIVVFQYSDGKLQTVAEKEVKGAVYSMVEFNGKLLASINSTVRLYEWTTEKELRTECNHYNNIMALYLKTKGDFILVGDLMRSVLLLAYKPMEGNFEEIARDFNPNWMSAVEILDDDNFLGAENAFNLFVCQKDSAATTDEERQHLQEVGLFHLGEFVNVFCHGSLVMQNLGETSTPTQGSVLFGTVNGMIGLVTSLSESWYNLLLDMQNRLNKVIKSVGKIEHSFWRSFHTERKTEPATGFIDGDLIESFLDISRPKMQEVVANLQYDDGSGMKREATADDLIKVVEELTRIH
recorded_metric: Kd (nM)
Use nM as the unit, but write only the number.

Solved cases (5 shown):
# molecule, recorded_metric, scale_unit, observed_measurement
measured = [
    ("O=C1Cc2cc(C(=O)Nc3ccccc3)ccc2N1 [Example 10, 2-Oxo-N-phenylindoline-5-carboxamide]", "Kd", "nM", 91),
    ("CC(C)c1nc2ccccc2n1-c1ccc2[nH]c(=O)oc2c1", "Kd", "nM", 108),
    ("O=C(c1ccc2[nH]c(=O)oc2c1)N1CCc2cccnc21", "Kd", "nM", 24),
    ("O=C1Cc2cc(NC(=O)c3ccco3)ccc2N1 [Example 2, N-(2-Oxoindolin-5-yl)furan-2-carboxamide]", "Kd", "nM", 7),
    ("O=C(Nc1ccccc1)c1ccc2[nH]c(=O)sc2c1", "Kd", "nM", 79),
]

Task item: Tell me the measured Kd of O=C1Cc2cc(C(=O)N3CCc4ccccc43)ccc2N1 , please.
Reply: 15

Task item: Returns the measured Kd for the input molecule. Input: CC(=O)N1CCC(NC(=O)c2cnc3[nH]c(=O)oc3c2)CC1
Reply: 7

Task item: Can you share its Kd? I mean this molecule: CC(C)c1nc2ccccc2n1-c1ccc2[nH]c(=O)sc2c1
Reply: 19

Task item: Dear colleague, I am looking for the recorded Kd of the following molecule: O=C(Nc1ccccc1)c1ccc2[nH]c(=O)oc2c1
Reply: 54

Task item: Which Kd is reported for this molecule? CNC(=O)c1ccc2c(c1)nc(C(C)C)n2-c1ccc2c(c1)NC(=O)C2
Reply: 2

Task item: I have this molecule here, Cc1ccccc1OCC(=O)Nc1ccc2[nH]c(=O)sc2c1 , and I need its recorded Kd.
Reply: 14

Task item: If you can, please state the reported Kd value of O=C(c1ccc2[nH]c(=O)sc2c1)N1CCc2ccccc21 .
Reply: 28

Task item: Quick check: Kd of O=C(Nc1ccc2[nH]c(=O)oc2c1)c1ccccc1 ?
Reply: 4
